Measured Ki accompanies every entry in the list below.
Target or system: D(2) dopamine receptor (Homo sapiens, UniProt P14416)
Sequence (P14416 whole entry): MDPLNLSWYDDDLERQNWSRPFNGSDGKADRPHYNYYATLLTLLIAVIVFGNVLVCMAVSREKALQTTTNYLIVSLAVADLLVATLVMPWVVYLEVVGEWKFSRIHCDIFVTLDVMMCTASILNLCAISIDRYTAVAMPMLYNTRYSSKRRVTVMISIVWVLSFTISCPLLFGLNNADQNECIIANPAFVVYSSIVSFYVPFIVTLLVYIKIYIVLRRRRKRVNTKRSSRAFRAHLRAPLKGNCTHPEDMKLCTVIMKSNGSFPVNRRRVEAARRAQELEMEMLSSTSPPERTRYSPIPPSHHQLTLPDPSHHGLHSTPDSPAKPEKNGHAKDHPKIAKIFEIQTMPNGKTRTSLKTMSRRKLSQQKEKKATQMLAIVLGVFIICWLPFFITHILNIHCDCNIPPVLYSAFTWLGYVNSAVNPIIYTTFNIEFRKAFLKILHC
Procedure text: biochemical
Type: cell-based
Description: Displacement of [3H]spiperone from human D2SR expressed in CHO cell membranes

| Compound | Ki, nM |
| --- | --- |
| O=c1ccc2c(N3CCNCC3)ccc(O)c2[nH]1 | 1200 |
| O=c1ccc2c(N3CCN(CCCCOc4ccn5ncc(/C=N/O)c5c4)CC3)ccc(O)c2[nH]1 (stereo in doubt; 9b) | 0.54 |
| O=C1COc2c(N3CCN(CCCCOc4ccn5ncc(/C=N/O)c5c4)CC3)ccc(O)c2N1 (stereo in doubt; 9c) | 0.67 |
| O=Cc1cnn2ccc(OCCCCN3CCN(c4ccc(O)c5c4OCC(=O)N5)CC3)cc12 | 0.73 |
| O=C1COc2c(N3CCN(CCCCOc4ccn5ncc(/C=N/O)c5c4)CC3)ccc(O)c2N1 (stereo in doubt; 9d) | 0.95 |
| CCCN1CCN(c2ccc(O)c3c2OCC(=O)N3)CC1 | 35 |
| O=c1ccc2c(N3CCN(CCCCOc4ccn5ncc(/C=N/O)c5c4)CC3)ccc(O)c2[nH]1 (stereo in doubt; 9a) | 1.3 |
| CN1CCN(c2ccc(O)c3c2OCCO3)CC1 | 1500 |
| CN1CCN(c2ccc(O)c3[nH]c(=O)ccc23)CC1 | 250 |

----------
Target or system: 5-hydroxytryptamine receptor 2A (Homo sapiens, UniProt P28223)
Sequence (P28223 whole entry): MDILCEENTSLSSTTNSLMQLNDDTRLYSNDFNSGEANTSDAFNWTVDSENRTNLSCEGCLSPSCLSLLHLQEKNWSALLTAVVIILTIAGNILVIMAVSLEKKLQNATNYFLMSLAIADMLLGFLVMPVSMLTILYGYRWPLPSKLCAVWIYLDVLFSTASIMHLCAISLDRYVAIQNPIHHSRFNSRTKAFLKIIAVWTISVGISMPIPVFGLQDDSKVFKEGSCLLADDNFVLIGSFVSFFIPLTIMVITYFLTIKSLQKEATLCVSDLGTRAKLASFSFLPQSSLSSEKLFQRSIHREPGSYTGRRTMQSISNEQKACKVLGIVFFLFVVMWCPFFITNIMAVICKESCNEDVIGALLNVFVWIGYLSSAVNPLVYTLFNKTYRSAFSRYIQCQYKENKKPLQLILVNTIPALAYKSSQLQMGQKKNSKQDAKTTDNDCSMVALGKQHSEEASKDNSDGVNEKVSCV
This section presents compounds with their documented Ki values.

| Compound | Unit abbreviation | Reported relation | Ki |
| --- | --- | --- | --- |
| O/N=C/c1cnn2ccc(OCCCCN3CCN(c4ccc(O)c5c4OCCO5)CC3)cc12 (stereo in doubt; 9e) | µM | = | 0.6 |
| O=Cc1cnn2ccc(OCCCCN3CCN(c4ccc(O)c5[nH]c(=O)ccc45)CC3)cc12 | µM | > | 15 |
| CN1CCCN(c2ccc(O)c3c2OCC(=O)N3)CC1 | µM | = | 6.4 |
| O=Cc1cnn2ccc(OCCCCN3CCN(c4ccc(O)c5c4OCC(=O)N5)CC3)cc12 | µM | = | 2.9 |
| CN1CCN(c2ccc(O)c3c2OCC(=O)N3)CC1 | µM | > | 20 |
